Test system: Rattus norvegicus
Test: Estrogenic activity in Sprague-Dawley rat assessed as increase in uterine weight administered as po daily once for 3 days relative to control
Format: functional
Parameters: concentration or dose not given beside the values

>  <compound>
Cc1ccc(SC(CC(=O)c2ccc(OCCN(C)C)cc2)c2ccccc2)cc1 (stereo not drawn)

>  <Activity [%]>
76

$$$$
>  <compound>
CC/C(=C(\c1ccccc1)c1ccc(OCCN(C)C)cc1)c1ccccc1 [TAMOXIFEN]

>  <Activity [%]>
155

$$$$
>  <compound>
O=C(CC(Sc1ccccc1)c1ccccc1)c1ccccc1 (stereo not drawn)

>  <Activity [%]>
185

$$$$
>  <compound>
CCSC(CC(=O)c1ccc(OCCN2CCCC2)cc1)c1ccccc1 (stereo not drawn)

>  <Activity [%]>
152

$$$$
>  <compound>
COc1ccc(C(CC(=O)c2ccccc2)Sc2ccccc2)cc1 (stereo not drawn)

>  <Activity [%]>
192

$$$$
>  <compound>
COc1ccc(C(=O)CC(Sc2ccccc2)c2ccc(OC)cc2)cc1 (stereo not drawn)

>  <Activity [%]>
187

$$$$
>  <compound>
CN(C)CCOc1ccc(C(=O)CC(Sc2ccccc2)c2ccccc2)cc1 (stereo not drawn)

>  <Activity [%]>
174

$$$$
>  <compound>
O=C(CC(Sc1ccc(O)cc1)c1ccccc1)c1ccc(OCCN2CCCCC2)cc1 (stereo not drawn)

>  <Activity [%]>
58

$$$$
>  <compound>
CCSC(CC(=O)c1ccc(OCCN2CCCCC2)cc1)c1ccccc1 (stereo not drawn)

>  <Activity [%]>
134

$$$$
>  <compound>
O=C(CC(Sc1ccc(O)cc1)c1cccc(O)c1)c1ccc(OCCN2CCCCC2)cc1 (stereo not drawn)

>  <Activity [%]>
79

$$$$
>  <compound>
O=C(CC(Sc1ccc(O)cc1)c1ccc(O)cc1)c1ccc(OCCN2CCCC2)cc1 (stereo not drawn)

>  <Activity [%]>
111

$$$$
>  <compound>
CCSC(CC(=O)c1ccc(OCCN(C)C)cc1)c1ccccc1 (stereo not drawn)

>  <Activity [%]>
212

$$$$
>  <compound>
O=C(CC(Sc1ccc(O)cc1)c1ccccc1)c1ccc(OCCN2CCCC2)cc1 (stereo not drawn)

>  <Activity [%]>
101

$$$$
